Test system: MV4-11
ASSAY: Antiproliferative activity at human MV4-11 cells assessed as reduction in cell viability measured after 72 hrs by Alamar blue dye based analysis
Type: functional
CONDITION_LABEL: MV4-11, 72 h
QUANTITY_MEASURED: IC50

Item: "Cc1sc2c(c1C)C(c1ccc(Cl)cc1)=N[C@@H](CC(=O)NC1CCN(C(=O)COc3cccc(N4CCC(=O)NC4=O)c3C)CC1)c1nnc(C)n1-2" | IC50: 1.1 nM

* * *

SYSTEM: Protein cereblon/DNA damage-binding protein 1 (Homo sapiens, UniProt Q96SW2)
Sequence (Q96SW2 whole entry): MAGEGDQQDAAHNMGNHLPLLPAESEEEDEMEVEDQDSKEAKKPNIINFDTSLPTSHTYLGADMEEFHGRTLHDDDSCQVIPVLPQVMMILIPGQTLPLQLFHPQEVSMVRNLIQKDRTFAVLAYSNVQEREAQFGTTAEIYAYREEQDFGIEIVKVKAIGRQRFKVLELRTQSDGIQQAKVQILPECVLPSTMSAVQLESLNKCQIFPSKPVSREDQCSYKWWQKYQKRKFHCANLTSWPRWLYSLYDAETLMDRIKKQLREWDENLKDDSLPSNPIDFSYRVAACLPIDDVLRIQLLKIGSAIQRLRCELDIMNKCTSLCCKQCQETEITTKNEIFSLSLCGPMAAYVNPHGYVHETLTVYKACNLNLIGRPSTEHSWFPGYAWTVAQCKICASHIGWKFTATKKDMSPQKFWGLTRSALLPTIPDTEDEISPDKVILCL
Sequence (Q16531 whole entry, further chain): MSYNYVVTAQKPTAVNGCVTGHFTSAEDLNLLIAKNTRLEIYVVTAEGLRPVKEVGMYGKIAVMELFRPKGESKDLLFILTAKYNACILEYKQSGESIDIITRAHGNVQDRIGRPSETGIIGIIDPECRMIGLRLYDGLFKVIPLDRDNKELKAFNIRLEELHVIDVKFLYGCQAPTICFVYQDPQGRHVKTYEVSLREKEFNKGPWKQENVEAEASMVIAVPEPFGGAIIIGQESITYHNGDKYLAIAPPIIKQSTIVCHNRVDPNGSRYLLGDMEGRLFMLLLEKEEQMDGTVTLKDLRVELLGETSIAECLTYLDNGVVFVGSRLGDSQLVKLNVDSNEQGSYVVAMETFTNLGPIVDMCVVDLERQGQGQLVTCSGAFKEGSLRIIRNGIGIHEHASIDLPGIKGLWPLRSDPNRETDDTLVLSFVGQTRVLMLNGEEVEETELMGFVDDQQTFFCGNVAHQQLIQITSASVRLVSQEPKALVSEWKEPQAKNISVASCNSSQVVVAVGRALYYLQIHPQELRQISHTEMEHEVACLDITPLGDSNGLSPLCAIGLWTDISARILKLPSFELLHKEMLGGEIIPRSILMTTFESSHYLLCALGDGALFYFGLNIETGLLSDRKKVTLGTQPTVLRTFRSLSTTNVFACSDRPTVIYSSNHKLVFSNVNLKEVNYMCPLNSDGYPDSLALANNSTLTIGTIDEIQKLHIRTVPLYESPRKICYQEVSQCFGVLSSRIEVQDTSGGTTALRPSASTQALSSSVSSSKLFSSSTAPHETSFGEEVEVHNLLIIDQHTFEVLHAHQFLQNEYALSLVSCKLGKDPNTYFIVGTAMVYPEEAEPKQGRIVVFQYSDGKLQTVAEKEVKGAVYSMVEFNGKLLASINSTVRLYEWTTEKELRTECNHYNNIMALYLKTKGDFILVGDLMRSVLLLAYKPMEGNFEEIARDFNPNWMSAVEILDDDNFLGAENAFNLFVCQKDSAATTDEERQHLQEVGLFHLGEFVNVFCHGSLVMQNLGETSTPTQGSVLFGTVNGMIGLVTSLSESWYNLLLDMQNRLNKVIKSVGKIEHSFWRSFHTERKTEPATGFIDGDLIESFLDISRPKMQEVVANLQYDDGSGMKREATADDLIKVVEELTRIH
ASSAY: Binding affinity to recombinant human CRBN/DDB1 assessed as dissociation constant incubated for 20 mins by fluorescence polarization assay
The entries below are paired with their reported pKd.
// pKd here means minus log10 of the molar concentration (mol/L)

As a guide, the following entries are already answered.
- SMILES_ENTRY: "CCNC(=O)COc1cccc(N2CCC(=O)NC2=O)c1C"
  pKd: 5.67
- SMILES_ENTRY: "CC(=O)NCCC#Cc1cccc(N2CCC(=O)NC2=O)c1C"
  pKd: 6.20

Shifting focus to the molecule that follows.
Per the record, "Cc1ccccc1N1CCC(=O)NC1=O" has pKd of 5.91

* * *

Item-by-item account of remaining at 4 h
ASSAY: Stability in human plasma assessed as parent compound remaining measured after 4 hrs in presence of NADPH by LC-MS/MS analysis
Assay type: ADME, cell-free
CONDITION_LABEL: read-out: Stability
The number alone won't do; follow it with the unit.

Guide cases for remaining at 4 h, answers given:
- SMILES_ENTRY: "Cc1c(OCC(=O)N2CCCCC2)cccc1N1CCC(=O)NC1=O"
  remaining at 4 h: "81%"
- SMILES_ENTRY: "CCNC(=O)COc1cccc(N2CCC(=O)NC2=O)c1C"
  remaining at 4 h: "88%"

Form: compound = "CC(=O)NCCC#Cc1cccc(N2CCC(=O)NC2=O)c1C" ; remaining at 4 h = 102%
